- assay_notes: Quantity of drug impregnated in stents by scCO2 (UV-spectroscopy after degradation in AUS)
- Format: physicochemical
- conditions: DrugETOH: BUS + 10% ethanol co-solvent; 90 min, 100 bar, 40° C.
observed_property: Quantity of drug impregnated by scCO2 (μgdrug/mgpolymer)

CC(=O)O[C@H]1C(=O)[C@@]2(C)[C@H]([C@H](OC(=O)c3ccccc3)[C@]3(O)C[C@H](OC(=O)[C@H](O)[C@@H](NC(=O)c4ccccc4)c4ccccc4)C(C)=C1C3(C)C)[C@]1(OC(C)=O)CO[C@@H]1C[C@@H]2O : 0.067
Nc1ccn([C@@H]2O[C@H](CO)[C@@H](O)C2(F)F)c(=O)n1 : 19.572

[P] COc1cccc2c1C(=O)c1c(O)c3c(c(O)c1C2=O)C[C@@](O)(C(=O)CO)C[C@@H]3O[C@H]1C[C@H](N)[C@H](O)[C@H](C)O1
[Q] COc1cccc2c1C(=O)c1c(O)c3c(c(O)c1C2=O)C[C@@](O)(C(=O)CO)C[C@@H]3O[C@H]1C[C@H](N)[C@@H](O)[C@H](C)O1 [Epirubicin, epirubicin]
Prompt line: So which one has the bigger Quantity of drug impregnated by scCO2 here, P or Q ? The response must carry the label of the picked entry.
Response line: P
(P: 3.748 μgdrug/mgpolymer, Q: 1.779 μgdrug/mgpolymer)
